# Protocol Notes: inhibition of 3D7 malaria parasite growth – strain 3D7 (AID 2306);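 note: 0% = DMSO wells and 100% = chloroquine plus artemisinin control wells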
# Condition Description: P. falciparum 3D7 erythrocytic growth, LDH absorbance, 72 h; at 2 µM; stronger effect = higher value
Kindly supply the reported growth inhibition values for the records listed here.
Answers are plain numbers, in %.

Worked cases, growth inhibition given:
COc1ccc(-c2nnc(Sc3ccc(C#N)c([N+](=O)[O-])c3)n2CCC(C)C)cc1; 89
Cc1ccc(Cl)cc1N1CCN(CCCNC(=O)C2CCN(c3nc4ccccc4[nH]3)CC2)CC1; 88
Cc1cc2nc(-c3ccc(/C=C/C(=O)NC4CCCCC4)cc3)[nH]c2cc1C; 93
CCCCCCCCc1c(C)[nH]c(C)c(I)c1=O; 91
Cc1noc(C)c1-c1ccc(C(=C2CCCCCCC2)c2ccc(O)cc2)cc1; 83
CC(NC(C)c1cccc(Cl)c1)C(=O)Nc1cc(C(F)(F)F)ccc1N1CCOCC1 (configuration not stated); 89

For each listed entry, give its growth inhibition.
1. O=C(NCC1CC1)C1Cc2c([nH]c3ccc(Br)cc23)C2(CCN(CCc3ccccc3)CC2)N1 (configuration not stated)
2. COc1ccc2ncc(F)c(CCN3C[C@H](CNCc4cc(F)c5c(c4)NC(=O)CO5)[C@H](O)C3)c2n1
3. CCOC(=O)NC1=NC(C)(C)N(OCc2cccc3c2ccc2ccccc23)C(NC(=O)OCC)=N1
4. CC(=O)Nc1cccc(C(=O)Nc2ccc(-c3cccc(-c4nc5ccc(C(F)(F)F)cc5[nH]4)c3)cc2)c1
5. C=C(F)c1sc(CNCCCNc2nc3ccccc3[nH]2)c(C)c1Br

1. 88
2. 94
3. 98
4. 101
5. 100

====

Field: growth inhibition. Provide a value for each of the molecules that follow.
# Protocol Notes: inhibition of 3D7 malaria parasite growth – strain 3D7 (AID 2306);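 note: 0% = DMSO wells and 100% = chloroquine plus artemisinin control wells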
# Condition Description: P. falciparum 3D7 erythrocytic growth, LDH absorbance, 72 h; at 2 µM; stronger effect = higher value
Give bare numbers, in %.

CCCCCN1CCC(NS(=O)(=O)c2cccc(C(=O)Nc3cccc(C(F)(F)F)c3)c2)C1 (centres undefined); 86

For every record below, what is its growth inhibition?
1. O=C(Nc1cccc(-c2cccc(-c3nc4ccc(C(F)(F)F)cc4[nH]3)c2)c1)c1csnn1
2. COc1ccc2nccc([C@@H](O)CN3CCC(NCc4cc5c(cc4F)SCC(=O)N5)CC3)c2n1
3. COC(=O)c1ccc(CN2CCC(N(Cc3cccc(Oc4ccccc4)c3)S(=O)(=O)c3ccc(NC(C)=O)cc3)CC2)cc1
4. CC(C)Sc1nc2c(c(=O)n1CCc1ccccc1)C1(CCCC1)Cc1ccccc1-2
5. COc1ccccc1Cc1c(C)nc2nc(N)nc(N)c2c1C
6. C=CCOc1ccccc1CNCC(O)c1cc(Br)cs1 (centres undefined)
7. CN(C(=O)/C=C/c1cc(C(F)(F)F)ccc1F)C1CCN(CCCCCNC(=O)/C=C/c2ccc(Cl)c(Cl)c2)C1 (centres undefined)
8. Cc1ccc2c(c1[N+](=O)[O-])N=NCC2Oc1ccccc1 (centres undefined)

1. 99
2. 96
3. 82
4. 102
5. 96
6. 93
7. 93
8. 91

====

# Experimental Target: Plasmodium falciparum protein kinase 6 (PK6, PF3D7_1337100)
# Protocol Notes: PfPK6 kinase inhibitors, biochemical, TCAMS library (AID 1159586)
# Condition Description: recombinant PfPK6, Kinase-Glo ATP depletion luminescence
Entries with a potency or affinity are not part of this list. Activity calls are given as the source filed them. No rule for the calls is given here.
Readout Name: outcome

O=C(Nc1ccccc1)OCCOc1ccc(CC2SC(=O)NC2=O)cc1 (stereo not given); inactive
Cc1ccc(NC(=O)Nc2ccccc2)cc1-c1ccc(C(=O)Nc2ccncc2)cc1; inactive
CC1CC1C(=O)NC1CCN(CC2(c3ccccc3)CCCCC2)CC1 (stereo not given); inactive
CC(C)Nc1nc(NCCc2cnc[nH]2)nc(NCc2cccc3ccccc23)n1; inactive
CN1CCN(CCCN(Cc2ccc(-c3ccc(CNCc4ccc5c(c4)OCO5)cc3)cc2)C(=O)CCC2CCCC2)CC1; inactive
C[C@@H](Oc1cc(-n2cnc3ccc(NC(=O)NC(C)(C)C)cc32)sc1C(N)=O)c1ccccc1Cl; inactive

Parameter requested: outcome. Apply to each item below.
1. CC(=NNC(=S)NC(C)(C)C)c1ccccn1
2. CCOc1cc(C(=O)Nc2ccc3nc(N(CC)CC)cc(C)c3c2)cc(OCC)c1OCC
3. CCN(CC)CCNc1ccnc2[nH]c3ccc(I)cc3c12
4. O=[N+]([O-])c1ccc2nccnc2c1

["inactive", "inactive", "inactive", "inactive"]

====

# Experimental Target: L-lactate dehydrogenase (Plasmodium falciparum (isolate CDC / Honduras)) (UniProt Q27743)
# Sequence (Q27743 whole entry, looked up): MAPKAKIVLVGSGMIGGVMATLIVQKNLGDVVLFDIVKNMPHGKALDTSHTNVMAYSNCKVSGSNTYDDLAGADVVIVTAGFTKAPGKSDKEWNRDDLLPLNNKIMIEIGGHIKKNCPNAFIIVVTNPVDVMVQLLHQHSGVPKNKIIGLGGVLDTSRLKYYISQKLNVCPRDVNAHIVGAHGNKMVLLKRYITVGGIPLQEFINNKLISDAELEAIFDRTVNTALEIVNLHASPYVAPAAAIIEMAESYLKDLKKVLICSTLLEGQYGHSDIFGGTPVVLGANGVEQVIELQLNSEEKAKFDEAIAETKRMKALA
# Protocol Notes: PfLDH activity inhibition – cell lysate, 3D7 strain, counter-screen for P. falciparum growth inhibition project (AID 2304);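 note: 0% = vehicle and 100% = reference inhibitor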
# Condition Description: P. falciparum 3D7 crude extract, LDH APAD/NBT absorbance; at 2 µM; stronger effect = higher value
Activity calls are given as the source filed them. The rule behind the calls is not given here.
Readout Name: inhibition

Would you please look over these solved cases?
COc1ccccc1C1CCN(C2CCC(NC(=O)/C=C/c3cccc(Cl)c3F)CC2)CC1 (centres undefined); -4% (inactive)
Cc1cc(N[C@@H](Cc2ccccc2)C(=O)NCCCOC(C)C)nc(NCCc2ccc(F)cc2)n1; 0% (inactive)
Cc1ccc(/C=C/C(=O)NCCCCCN2CCN(C(=O)Nc3ccc(Cl)c(C(F)(F)F)c3)CC2)cc1; -2% (inactive)
COc1ccccc1NC(=O)Nc1ccc(-c2ccc(-c3nc4c(C)cccc4[nH]3)s2)cc1; 0% (inactive)
Cc1nc2ccc3ccc(CNc4ccc5c(c4)CN([C@H](CCC(=O)O)C(=O)O)C5=O)cc3c2c(=O)[nH]1; 2% (inactive)
COc1ccc(-c2cncc3ccc(C(=O)NCc4ccncc4)nc23)cc1; 0% (inactive)

Dear colleague, could you send me inhibition for each of the items below? Thanks.
1. N#Cc1ccc(NC(=NC2CCCc3ccccc32)Nc2ccc(-c3ccccc3)cc2)c(O)c1 (centres undefined)
2. CN(C)C1CCN(CC#Cc2cc3ncnc(Nc4ccc(OCc5cccc(F)c5)c(Cl)c4)c3s2)CC1
3. Cc1cccc(OC(C)C(=O)Nc2cc(C(F)(F)F)ccc2N2CCOCC2)c1 (centres undefined)
4. CC(Cc1ccc(OCc2ccccc2)cc1)Nc1nc2ccccc2c(=O)[nH]1 (centres undefined)
5. CCCc1nc2c(N3CCCN(C(=O)NC4CCCCC4)CC3)cccc2n1Cc1ccccn1

1: 3% (inactive); 2: -5% (inactive); 3: -3% (inactive); 4: -1% (inactive); 5: 5% (inactive)

Would you mind listing inhibition for each of the following molecules?
1. COc1ccc2cc(-c3nc(-c4c(Cl)cccc4Cl)[nH]c3-c3ccnc(NCCCN4CCCCC4C)c3)ccc2c1 (centres undefined)
2. CSc1ccc(CN2CCC(NC(=O)c3ccc(-c4cccc(C(F)(F)F)c4)s3)CC2)cc1
3. FC(F)(F)c1ccc2nc(-c3ccc(-c4cccc(CN5CCC(CCN6CCCCC6)CC5)c4)cc3)[nH]c2c1
4. N=C(N)c1ccc(NCc2cccc(C(=O)O)c2)cc1
5. Cc1[nH]c(C)c(-c2ccc(-c3ccc(F)cc3)cc2)c(=O)c1Br
6. O=C(Nc1cccc(-c2nn3ccccc3c2-c2ccnc(Nc3cccc(C(F)(F)F)c3)n2)c1)c1c(F)cccc1F

1. -1% (inactive)
2. -2% (inactive)
3. -5% (inactive)
4. -2% (inactive)
5. 2% (inactive)
6. -2% (inactive)

Could you tell me inhibition for each of these molecules? They are listed below.
1. CCCCCCN1CCN(Cc2cccc(NC(=O)c3cc4ccccc4o3)c2)CC1
2. CCn1cnc2c(N3CCCS3(=O)=O)cc(C(=O)N[C@@H](Cc3ccccc3)[C@H](O)CNC(C)(C)c3cccc(C(F)(F)F)c3)cc21

3% (inactive)
-1% (inactive)

====

# Protocol Notes: inhibition of 3D7 malaria parasite growth – strain 3D7 (AID 2306);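 note: 0% = DMSO wells and 100% = chloroquine plus artemisinin control wells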
# Condition Description: P. falciparum 3D7 erythrocytic growth, LDH absorbance, 72 h; at 2 µM; stronger effect = higher value
Readout Name: growth inhibition (%)
Answers are plain numbers, in %.

Cc1cccc(C(=O)NC(NC(=S)Nc2cc(Cl)ccc2Cl)C(Cl)(Cl)Cl)c1 (centres undefined); 94

Would you be so kind as to report growth inhibition for each listed record?
1. COc1ccc(CNc2nc(NCCc3ccccc3)c3cc(OC)c(OC)cc3n2)cc1OC
2. CCc1c(CCNCCCCCCNCc2ccc3c(c2CC)OCO3)ccc(OC)c1OC
3. Cn1nccc1C(=O)NCCNCc1ccc(-c2ccc(-c3nc4ccc(C(F)(F)F)cc4[nH]3)s2)cc1
4. COc1cc(C)ccc1N1CCN(CCCCNC(=O)c2ccc(NC(=O)c3ccc(Cl)cc3)cc2)CC1
5. O=C(Nc1ccc(OC2CCN(Cc3ccccc3)CC2)c(Cl)c1)c1ccc(F)cc1
6. Cc1cccc(CNc2nc(C)cc(NCCC(=O)NCc3cccc(F)c3)n2)c1

[100, 100, 101, 99, 94, 84]

// each compound listed below needs its growth inhibition
1. COc1ccccc1C1CCN(C2CCC(NC(=O)c3cc(-c4ccc(Cl)cc4)cs3)CC2)CC1 (centres undefined)
2. CCCNCc1ccc(-c2ccc(CN(Cc3ccc4c(c3)OCO4)C(=O)Cc3cccnc3)cc2)nc1
3. O=C(c1csc(-c2cccnc2)n1)N1CCc2cc3nccc(N4CCN5CCC[C@H]5C4)c3cc21
4. Oc1ccc2ncnc(Nc3ccc(OCc4cccc(F)c4)c(Cl)c3)c2c1
5. COc1cc(C(=O)Nc2cccc(-c3cn4cccc(C)c4n3)c2)cc(OC)c1OC
6. Cc1c(Br)cc2[nH]c(-c3ccc(C(=O)NC4CCN(Cc5ccccc5)CC4)cc3)nc2c1C

1: 101; 2: 94; 3: 97; 4: 100; 5: 99; 6: 102

# per-item lookup of growth inhibition; items listed below
1. O=C(N[C@H]1CCN(CCc2ccc(O[C@H]3CCNC3)cc2)C1)c1ccc(Cl)c(Cl)c1
2. N#Cc1ccc(N[C@@H](CC2CCCCC2)C(=O)Nc2ccc(-c3ccccc3)cc2)c2ccccc12
3. CCC(C)OC(=O)C1=C(C)NC2=C(C(=O)CC(c3ccc(OC)c(OC)c3)C2)C1c1cccc(O)c1 (centres undefined)
4. COc1cccc(C(O)CNc2ccnc(Nc3ccc(Cl)cc3)n2)c1 (centres undefined)
5. COC(=O)CCCCOc1c(OC)cc(Cc2cnc(N)nc2N)cc1OC

1: 96; 2: 100; 3: 100; 4: 99; 5: 93

Read the entry O=S(=O)(NCCN1CCCC1)c1cccc(-c2ccc(CNCc3ccc(F)cc3)cc2)c1 and write its reported growth inhibition.
104
